experiment: Equilibrium solubility of crystalline solid forms in simulated fluids (SGF, FaSSIF, FedSSIF); type: physicochemical; conditions: simulated gastric fluid, thermodynamic from solid; SGF; room temperature, 24 hours
EXPERIMENTAL READOUT: solubility thermodynamic at 24 h (µg/mL)

(1) Cc1ccc(S(=O)(=O)O)cc1.Cn1nccc1Nc1nccc(-c2cc3c(s2)C(C)(C)N(CCN2CCOCC2)C3=O)n1
(2) Cn1nccc1Nc1nccc(-c2cc3c(s2)C(C)(C)N(CCN2CCOCC2)C3=O)n1 [Free base, reference compound]
Q) Compare solubility thermodynamic at 24 h: is it lower for 1 or for 2 ? # answer = label of selected item
A) 2
(2: 3700 µg/mL, 1: 7080 µg/mL)
